- protocol_details: Kinetic solubility
- experimental_parameters: kinetic from dmso stock, Solubility, kinetic solubility; n = 1 or average of n = 2-3
readout: solubility (µM)
One number for each entry, in µM.

molecule="C[C@@H]1CCN(c2ccc3nccc(C(=O)NCC(=O)N4CSC[C@H]4C#N)c3c2)C1 [Example 55]" unit_string=µM val=11
molecule="C[C@H]1CCN(c2ccc3nccc(C(=O)NCC(=O)N4CSC[C@H]4C#N)c3c2)C1 [Example 54]" unit_string=µM val=13

// moving on: another record for solubility
Exercise: Query: solubility; subject: N#C[C@@H]1CSCN1C(=O)CNC(=O)c1ccnc2ccc(-c3ccc(C(F)F)nc3)cc12 [Example 169]
Key: 26

---

- assay_system: hFAP (M39-A757) (Homo sapiens (Human), UniProt Q12884)
- Sequence (Q12884 39-757): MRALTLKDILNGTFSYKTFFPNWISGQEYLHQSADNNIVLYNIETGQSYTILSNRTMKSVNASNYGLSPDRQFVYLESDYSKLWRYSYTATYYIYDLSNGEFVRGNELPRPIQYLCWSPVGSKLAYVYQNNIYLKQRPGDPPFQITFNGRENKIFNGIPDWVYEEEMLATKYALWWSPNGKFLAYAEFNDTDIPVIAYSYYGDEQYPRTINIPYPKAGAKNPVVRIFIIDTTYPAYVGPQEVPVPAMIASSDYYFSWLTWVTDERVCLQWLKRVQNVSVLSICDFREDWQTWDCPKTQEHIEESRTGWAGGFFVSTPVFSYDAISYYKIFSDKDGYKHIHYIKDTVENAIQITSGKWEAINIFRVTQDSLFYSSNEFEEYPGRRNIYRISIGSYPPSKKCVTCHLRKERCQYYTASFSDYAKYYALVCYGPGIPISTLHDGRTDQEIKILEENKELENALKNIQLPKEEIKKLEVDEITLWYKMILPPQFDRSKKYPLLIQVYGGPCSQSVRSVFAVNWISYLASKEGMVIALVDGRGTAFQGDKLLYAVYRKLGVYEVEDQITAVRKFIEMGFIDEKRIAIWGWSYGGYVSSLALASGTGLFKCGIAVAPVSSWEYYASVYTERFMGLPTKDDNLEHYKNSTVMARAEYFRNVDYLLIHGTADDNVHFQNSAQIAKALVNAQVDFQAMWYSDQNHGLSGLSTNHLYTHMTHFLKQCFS
- protocol_details: hFAP binding assay (surface plasmon resonance)
- experimental_parameters: SPR, 20° C., single cycle kinetics
Exercise: for every item that follows, state its recorded hFAP Binding assay k(off).
Answers are plain numbers, in s⁻¹.

compound=C[C@@H]1COC[C@H](C)N1c1ccc2nccc(C(=O)NCC(=O)N3CSC[C@H]3C#N)c2c1 val=0.00010
compound=N#C[C@@H]1CSCN1C(=O)CNC(=O)c1ccnc2ccc(N3CC(C4CC4)C3)cc12 val=0.00013

// moving on: another record for hFAP Binding assay k(off)
Exercise: Query: hFAP Binding assay k(off); subject: CC1(C2CC2)CN(c2ccc3nccc(C(=O)NCC(=O)N4CSC[C@H]4C#N)c3c2)C1
Key: 0.000080

---

- protocol_details: Kinetic solubility
- experimental_parameters: kinetic from dmso stock, Solubility, kinetic solubility; n = 1 or average of n = 2-3
readout: solubility (µM)
Give bare numbers, in µM.

Below: 5 molecules and their reported solubility.
molecule=N#C[C@@H]1CSCN1C(=O)CNC(=O)c1ccnc2ccc(N3CC[C@@H](F)C3)cc12 readout=solubility unit_string=µM val=57
molecule=CC(C)C1CN(c2ccc3nccc(C(=O)NCC(=O)N4CSC[C@H]4C#N)c3c2)C1 readout=solubility unit_string=µM val=3.4
molecule=C[C@@H]1CN(c2ccc3nccc(C(=O)NCC(=O)N4CSC[C@H]4C#N)c3c2)CCCO1 readout=solubility unit_string=µM val=130
molecule="N#C[C@@H]1CSCN1C(=O)CNC(=O)c1ccnc2ccc(-c3ccnn3[C@H]3CCCCO3)cc12 (mixture of isomers)" readout=solubility unit_string=µM val=800
molecule=Cc1ccc(-c2ccc3nccc(C(=O)NCC(=O)N4CSC[C@H]4C#N)c3c2)cn1 readout=solubility unit_string=µM val=40

Kindly give each listed record's solubility.
1. N#C[C@@H]1CSCN1C(=O)CNC(=O)c1ccnc2ccc(N3CC(Cc4ccc(Cl)cc4)C3)cc12
2. N#C[C@@H]1CSCN1C(=O)CNC(=O)c1ccnc2ccc(N3CCCC[C@H]3CF)cc12
3. CC1(C)CCCN1c1ccc2nccc(C(=O)NCC(=O)N3CSC[C@H]3C#N)c2c1

Key:
[19, 340, 150]

---

A short record of IC50 observed with Prolyl endopeptidase, Prolyl Oligopeptidase (hPREP) (Homo sapiens (Human)) follows.
Sequence (P48147 whole entry): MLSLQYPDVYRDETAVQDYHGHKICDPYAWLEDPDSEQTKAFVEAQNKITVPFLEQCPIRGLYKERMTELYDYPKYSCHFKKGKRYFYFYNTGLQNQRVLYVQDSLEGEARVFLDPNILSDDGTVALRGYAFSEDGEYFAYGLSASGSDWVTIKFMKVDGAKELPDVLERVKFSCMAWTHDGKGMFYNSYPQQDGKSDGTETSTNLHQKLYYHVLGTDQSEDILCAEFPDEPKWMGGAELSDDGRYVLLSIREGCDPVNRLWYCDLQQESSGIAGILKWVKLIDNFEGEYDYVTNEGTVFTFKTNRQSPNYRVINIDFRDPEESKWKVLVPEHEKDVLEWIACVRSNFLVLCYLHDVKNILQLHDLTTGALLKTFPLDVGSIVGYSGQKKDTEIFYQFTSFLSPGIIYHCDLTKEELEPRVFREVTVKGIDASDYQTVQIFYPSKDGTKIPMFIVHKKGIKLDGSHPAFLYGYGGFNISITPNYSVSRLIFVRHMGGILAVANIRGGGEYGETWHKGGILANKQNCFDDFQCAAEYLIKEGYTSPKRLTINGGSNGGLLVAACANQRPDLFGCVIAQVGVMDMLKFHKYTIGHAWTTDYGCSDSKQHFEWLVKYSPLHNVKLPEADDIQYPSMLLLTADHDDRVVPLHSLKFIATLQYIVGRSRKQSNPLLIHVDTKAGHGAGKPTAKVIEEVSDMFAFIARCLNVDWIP
Answers are plain numbers, in nM.

Below: 5 molecules and their reported IC50.
molecule=N#C[C@@H]1CSCN1C(=O)CNC(=O)c1ccnc2ccc(N3C[C@H]4C[C@@H]3CO4)cc12 val=510
molecule=N#C[C@@H]1CSCN1C(=O)CNC(=O)c1ccnc2ccc(N3CC(c4ccc(F)cc4)C3)cc12 val=130
molecule=C[C@@H]1CN(c2ccc3nccc(C(=O)NCC(=O)N4CSC[C@H]4C#N)c3c2)CCCO1 val=610
molecule=N#C[C@@H]1CSCN1C(=O)CNC(=O)c1ccnc2ccc(N3CCCCO3)cc12 val=410
molecule=N#C[C@@H]1CSCN1C(=O)CNC(=O)c1ccnc2ccc(N3CC4CCC(C3)O4)cc12 val=630

Kindly give each listed record's IC50.
1. N#C[C@@H]1CSCN1C(=O)CNC(=O)c1ccnc2ccc(N3C[C@@H](F)[C@H](F)C3)cc12
2. N#C[C@@H]1CSCN1C(=O)CNC(=O)c1ccnc2ccc(N3CC4CCCC4C3)cc12 (some centres unmarked)
3. C[C@@H]1CCN(c2ccc3nccc(C(=O)NCC(=O)N4CSC[C@H]4C#N)c3c2)C1

Key:
[280, 170, 440]
